// Human urokinase type plasminogen activator (h u-PA) (Homo sapiens, UniProt P00749) Ki records
Structures can show the parent of a compound that is named as a salt.
quantity.measured: Ki

[[record]]
compound = "NCc1ccc(Cl)cc1CNC(=O)[C@@H]1CCCN1C(=O)[C@@H](CC(=O)N1CCOCC1)NS(=O)(=O)Cc1ccccc1"
quantity_measured = "Ki"
result = "> 40 µM"

[[record]]
compound = "NCc1ccc(Cl)cc1CNC(=O)[C@@H]1CCCN1C(=O)[C@@H](CC(=O)O)NS(=O)(=O)Cc1ccccc1"
quantity_measured = "Ki"
result = "> 50 µM"

[[record]]
compound = "NCc1ccc(Cl)cc1CNC(=O)[C@@H]1CCCN1C(=O)[C@@H](CCC(=O)N1CCOCC1)NS(=O)(=O)Cc1ccccc1 [Compound 2.1, TFA]"
quantity_measured = "Ki"
result = "> 40 µM"

[[record]]
compound = "NCc1ccc(Cl)cc1CNC(=O)[C@@H]1CCCN1C(=O)[C@H](N)CCC(=O)N1CCOCC1 [Compound 2.49, TFA]"
quantity_measured = "Ki"
result = "> 100 µM"

[[record]]
compound = "NCc1ccc(Cl)cc1CNC(=O)[C@@H]1C[C@@H](N)CN1C(=O)[C@@H](CC(=O)N1CCNCC1)NS(=O)(=O)Cc1ccccc1"
quantity_measured = "Ki"
result = "> 100 µM"

[[record]]
compound = "CN(C(=O)CC[C@@H](NS(=O)(=O)Cc1ccccc1)C(=O)N1CCC[C@H]1C(=O)NCc1cc(Cl)ccc1CN)C1CCOCC1"
quantity_measured = "Ki"
result = "> 100 µM"

